Observed MIC values for Escherichia coli W160-37 are listed in what follows.
Your answer is read as µM, so omit the unit and give the number.

CC[C@H](C)[C@@H]1NC(=O)[C@@H]2CCCN2C(=O)[C@H](CC(C)C)NC(=O)[C@@H]2CCCN2C(=O)[C@H]([C@@H](C)CC)NC(=O)[C@H](C)NC(=O)[C@H](Cc2ccc(O)cc2)NC(=O)[C@@H](NC(=O)[C@@H](NC(=O)[C@@H](N)CCCN=C(N)N)C(C)C)CSSC[C@@H](C(=O)N[C@@H](Cc2ccc(O)cc2)C(N)=O)NC1=O [RVCYAIPLPICY]
28.4
CC[C@H](C)[C@H](N)C(=O)N[C@H](C(=O)N[C@@H](CO)C(=O)N[C@H](C(=O)N[C@H](C(=O)NCC(=O)N[C@@H](CCCCN)C(=O)N[C@@H](CC(C)C)C(=O)N[C@H](C(=O)N[C@@H](CCCCN)C(=O)N[C@@H](Cc1c[nH]c2ccccc12)C(=O)N[C@H](C(=O)N[C@H](C(=O)N[C@@H](CC(=O)O)C(=O)N[C@H](C(=O)N[C@H](C(=O)O)C(C)C)[C@@H](C)O)[C@@H](C)CC)[C@@H](C)CC)C(C)C)[C@@H](C)CC)[C@@H](C)O)[C@@H](C)CC [IISTIGKLVKWIIDTV]
8

Attention now turns to another entry.
Exam item: For the molecule shown here, CC[C@H](C)[C@H](NC(=O)[C@H](CC(C)C)NC(=O)[C@H](CCC(N)=O)NC(=O)[C@H](CCCCN)NC(C)=O)C(=O)N[C@@H](CCCN=C(N)N)C(=O)N[C@@H](Cc1ccccc1)C(=O)N[C@@H](CC(C)C)C(=O)N[C@@H](CCCCN)C(=O)N[C@@H](CCCN=C(N)N)C(=O)N[C@@H](CC(C)C)C(=O)N[C@@H](CC(=O)O)C(=O)N[C@@H](CCCN=C(N)N)C(=O)N[C@@H](CC(N)=O)C(=O)N[C@@H](CC(C)C)C(=O)N[C@@H](Cc1c[nH]c2ccccc12)C(=O)NCC(=O)N[C@@H](CC(C)C)C(=O)N[C@@H](C)C(N)=O [KQLIRFLKRLDRNLWGLA] , give the reported MIC.
Marked response: 4.5

---

Observed MIC values for Enterococcus faecium ATCC 700221 are listed in what follows.
Measure name: MIC (µM)

Here are 2 compounds together with their reported answers.
CC[C@H](C)[C@H](NC(=O)[C@H](CCCCN)NC(=O)[C@H](CCCCN)NC(=O)[C@H](Cc1ccccc1)NC(=O)[C@H](CC(C)C)NC(=O)[C@H](CCCCN)NC(=O)[C@@H](N)CCCCN)C(=O)N[C@@H](CC(C)C)C(=O)N[C@@H](CCCN=C(N)N)C(=O)N[C@@H](Cc1ccc(O)cc1)C(=O)N[C@@H](CC(C)C)C(N)=O
5.86
CC[C@H](C)[C@H](NC(=O)[C@H](CCCCN)NC(=O)[C@H](C)NC(=O)[C@H](CCCN=C(N)N)NC(=O)[C@H](CC(C)C)NC(=O)[C@H](CCCN=C(N)N)NC(=O)[C@@H](NC(=O)[C@H](CCCCN)NC(=O)[C@@H](NC(=O)[C@H](CCCCN)NC(=O)[C@H](C)NC(=O)[C@H](CCCN=C(N)N)NC(=O)[C@H](CC(C)C)NC(=O)[C@H](CCCCN)NC(=O)[C@H](Cc1ccccc1)NC(=O)CNC(=O)[C@@H](N)CCSC)[C@@H](C)CC)C(C)C)C(=O)N[C@@H](CCCCN)C(=O)N[C@@H](CC(C)C)C(=O)O
28.2

a: CC[C@H](C)[C@H](NC(=O)[C@H](Cc1c[nH]c2ccccc12)NC(=O)[C@H](CCCCN)NC(=O)[C@H](CC(C)C)NC(=O)[C@H](CC(C)C)NC(=O)CN)C(=O)N[C@@H](CCCCN)C(=O)N[C@H](C(=O)N[C@@H](CC(C)C)C(=O)N[C@@H](CC(C)C)C(N)=O)[C@@H](C)O
b: NCC(=O)NCC(=O)N[C@@H](Cc1cnc[nH]1)C(=O)NCC(=O)N[C@@H](Cc1c[nH]c2ccccc12)C(=O)N[C@@H](CCCN=C(N)N)C(=O)N[C@@H](Cc1c[nH]c2ccccc12)C(=O)N[C@@H](Cc1ccc(O)cc1)C(=O)N[C@@H](CS)C(=O)N[C@@H](CCCN=C(N)N)C(N)=O
Exam item: Please let me know which one, a or b , has a lower measured MIC value. State your choice using its label.
Marked response: a
(a: 9.5 µM, b: 25 µM)

---

Listed below: MIC values for each entry.
Tested on: Pseudomonas aeruginosa Ps4
Test: ≥ marks a high value that may be exact or a test limit, other limits are often not marked, values filed in µg/mL are converted to µM

Here are 2 molecules together with their reported answers.
CC[C@H](C)[C@H](NC(=O)[C@H](CC(N)=O)NC(=O)[C@H](CCCN=C(N)N)NC(=O)[C@H](CCC(N)=O)NC(=O)[C@H](Cc1c[nH]c2ccccc12)NC(=O)[C@@H](N)CCCN=C(N)N)C(=O)N[C@@H](CCCN=C(N)N)C(=O)N[C@@H](CCCCN)C(=O)N[C@H](C(=O)N[C@@H](CCCN=C(N)N)C(=O)N[C@@H](CCCN=C(N)N)C(N)=O)C(C)C
≥ 159 µM
CC[C@H](C)[C@H](NC(=O)[C@H](CC(N)=O)NC(=O)[C@H](CCCN=C(N)N)NC(=O)[C@H](CCC(N)=O)NC(=O)[C@H](Cc1c[nH]c2ccccc12)NC(=O)[C@H](CCCN=C(N)N)NC(=O)[C@@H](N)CCCN=C(N)N)C(=O)N[C@@H](CCCN=C(N)N)C(=O)N[C@@H](CCCCN)C(=O)N[C@H](C(=O)N[C@@H](CCCN=C(N)N)C(=O)N[C@@H](CCCN=C(N)N)C(N)=O)C(C)C
≥ 145 µM

Attention now turns to another entry.
Exam item: For the molecule shown here, `CC[C@H](C)[C@H](NC(=O)[C@H](CCCN=C(N)N)NC(=O)[C@H](CCCN=C(N)N)NC(=O)[C@H](CCCN=C(N)N)NC(=O)[C@@H](NC(=O)[C@H](CCCCN)NC(=O)[C@H](CCCN=C(N)N)NC(=O)[C@@H](NC(=O)[C@H](CC(N)=O)NC(=O)[C@H](CCCN=C(N)N)NC(=O)[C@H](CCC(N)=O)NC(=O)[C@H](Cc1c[nH]c2ccccc12)NC(=O)[C@@H](N)Cc1ccccc1)[C@@H](C)CC)C(C)C)C(N)=O` , give the reported MIC.
Marked response: ≥ 137 µM

---

Tested on: Proteus mirabilis
Measure name: MIC

Exam item: For the compound shown here, CC(C)C[C@H](NC(=O)[C@@H](N)Cc1ccccc1)C(=O)NCC(=O)N[C@@H](C)C(=O)N[C@@H](Cc1c[nH]c2ccccc12)C(=O)N[C@@H](Cc1ccccc1)C(=O)N[C@@H](CCCCN)C(=O)N[C@H](C(=O)N[C@@H](C)C(=O)N[C@@H](CO)C(=O)N[C@@H](CCCCN)C(=O)O)C(C)C [FLGAWFKVASK] , give the reported MIC.
Marked response: ≥ 160 µM

---

System: Pseudomonas aeruginosa ATCC 27853
Experiment: ≥ marks a high value that may be exact or a test limit, other limits are often not marked, values filed in µg/mL are converted to µM
Measure name: MIC (µM)
Your answer is read as µM, so omit the unit and give the number.

Exam item: For the molecule shown here, CC[C@H](C)[C@H](N)C(=O)N[C@@H](Cc1cnc[nH]1)C(=O)N[C@@H](CCCCN)C(=O)N[C@@H](Cc1ccccc1)C(=O)N[C@@H](Cc1c[nH]c2ccccc12)C(=O)N[C@@H](CCCN=C(N)N)C(=O)N1CCC[C@H]1C(=O)NCC(=O)N[C@@H](CCCN=C(N)N)C(=O)N[C@@H](Cc1c[nH]c2ccccc12)C(=O)N[C@@H](Cc1ccccc1)C(=O)N[C@@H](CCCCN)C(=O)N[C@@H](Cc1cnc[nH]1)C(=O)N[C@H](C(N)=O)[C@@H](C)CC [IHKFWRPGRWFKHI] , give the reported MIC.
Marked response: 4

---

Listed below: MIC values for each entry.
System: Staphylococcus aureus NCTC 10788
Your answer is read as µM, so omit the unit and give the number.

Here are 3 compounds together with their reported answers.
CC[C@H](C)[C@@H]1NC(=O)[C@H](C)NC(=O)[C@@H](NC(=O)[C@H](Cc2ccccc2)NC(=O)[C@@H](NC(=O)[C@H](CCCCN)NC(=O)[C@@H]2CCCN2C(=O)[C@H](CC(C)C)NC(=O)[C@H](Cc2ccccc2)NC(=O)[C@H](CCCCN)NC(=O)[C@@H](N)CCCCN)[C@@H](C)CC)CSSC[C@@H](C(=O)O)NC(=O)[C@H](CCCCN)NC(=O)[C@H](CCCCN)NC(=O)[C@H]([C@@H](C)O)NC1=O
8
CC[C@H](C)[C@H](NC(=O)[C@H](CCCCN)NC(=O)[C@H](CCCCN)NC(=O)[C@H](C)NC(=O)[C@@H](NC(=O)[C@H](C)NC(=O)[C@H](CC(C)C)NC(=O)[C@H](CC(C)C)NC(=O)[C@H](C)NC(=O)[C@H](CCCCN)NC(=O)[C@H](CC(C)C)NC(=O)[C@H](CC(N)=O)NC(=O)[C@@H](N)CC(C)C)C(C)C)C(=O)N[C@@H](CC(C)C)C(N)=O
2
CC[C@H](C)[C@H](NC(=O)CNC(=O)[C@@H](NC(=O)[C@H](C)NC(=O)[C@@H](NC(=O)[C@H](CCCCN)NC(=O)[C@@H]1CCCN1C(=O)[C@@H](NC(=O)[C@H](CC(C)C)NC(=O)[C@H](CO)NC(=O)[C@H](CC(C)C)NC(=O)[C@@H](N)Cc1ccccc1)[C@@H](C)CC)[C@@H](C)CC)[C@@H](C)O)C(=O)N[C@@H](C)C(=O)N[C@@H](C)C(=O)N[C@@H](CC(C)C)C(=O)N[C@@H](C)C(=O)N[C@@H](CCCCN)C(=O)N[C@@H](Cc1cnc[nH]1)C(=O)N[C@@H](CC(C)C)C(N)=O
2

Exam item: For the compound shown here, `CC[C@H](C)[C@H](NC(=O)[C@H](C)NC(=O)[C@H](CC(C)C)NC(=O)[C@@H]1CCCN1C(=O)[C@@H](NC(=O)[C@H](CCSC)NC(=O)CNC(=O)[C@H](CC(C)C)NC(=O)[C@@H](N)CC(C)C)[C@@H](C)CC)C(=O)N[C@@H](CO)C(=O)N[C@@H](C)C(=O)N[C@H](C(=O)N[C@@H](CO)C(=O)N[C@@H](CO)C(=O)N[C@@H](CC(C)C)C(=O)N[C@@H](CO)C(=O)N[C@@H](CCCCN)C(=O)N[C@@H](CC(C)C)C(N)=O)[C@@H](C)CC` , give the reported MIC.
Marked response: 17.5

Exam item: Try the compound `CC[C@H](C)[C@H](NC(=O)[C@H](CC(C)C)NC(=O)[C@@H]1CCCN1C(=O)[C@H](CC(C)C)NC(=O)[C@@H](N)Cc1ccccc1)C(=O)N[C@@H](CC(C)C)C(=O)N[C@@H](CCCN=C(N)N)C(=O)N[C@@H](CCCCN)C(=O)N[C@H](C(=O)N[C@H](C(=O)N[C@H](C(=O)N[C@@H](C)C(=O)N[C@@H](CC(C)C)C(N)=O)[C@@H](C)O)C(C)C)[C@@H](C)CC`
Marked response: 2
